Assay: Inhibition of [3H]DTG binding to Sigma opioid receptor
quantity: log10(Ki) (log10 of the value in nM)
Recorded Ki (log10, nM)

# compound, quantity, experimental value
rows = [
    ("c1ccc(CCCNC2Cc3ccccc3C2)cc1", "log10(Ki)", 1.43),
    ("CCCc1ccc(CC(C)NCCCc2ccccc2)cc1 (stereo not given)", "log10(Ki)", 0.79),
    ("CC(Cc1cccc(Br)c1)NCCCc1ccccc1 (stereo not given)", "log10(Ki)", 0.78),
    ("CC(Cc1cccc(C(F)(F)F)c1)NCCCc1ccccc1 (stereo not given)", "log10(Ki)", 0.59),
]

Input c1ccc(CCCNC2CCCc3ccccc3C2)cc1 (stereo not given) . Output log10(Ki): 1.92

====

Experiment: In vitro binding affinity at PCP binding site of sigma-opioid receptors using (+)-[3H]-MK-801 as radioligand
pIC50: −log10 of the molar value.
quantity: pIC50

# compound, experimental value
measured = [
    ("COc1ccc(CC(C)NCCCc2ccccc2)cc1 (configuration not stated)", "< 5.00"),
]

From here, focus on the item given below.
Input CC(Cc1ccc(I)cc1)NCCCc1ccccc1 (configuration not stated) . Output pIC50: < 5.00
